Listing of recorded binding signal by entry.
Molecular target: OsWRKY34 (Oryza sativa, UniProt Q0JBA9 1-250)
Sequence (Q0JBA9 entry or part of it): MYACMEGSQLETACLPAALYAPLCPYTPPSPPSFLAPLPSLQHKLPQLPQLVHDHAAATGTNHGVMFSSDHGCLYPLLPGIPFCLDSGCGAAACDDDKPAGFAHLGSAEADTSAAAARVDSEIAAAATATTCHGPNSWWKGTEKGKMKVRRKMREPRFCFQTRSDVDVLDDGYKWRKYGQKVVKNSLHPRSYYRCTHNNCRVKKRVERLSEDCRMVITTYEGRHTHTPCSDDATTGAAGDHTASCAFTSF
Experiment: protein-binding microarray (RPBM); PBS, 2% BSA, 51.3 ng/ul salmon testes DNA, 50 uM zinc acetate, 200 nM TF, 25 C, 1 h; high values mean tight binding
Settings: protein: recombinant; tags: N-terminal polyhistidine and DsRed monomer fusion (pET32a); label: CyDye5-dUTP incorporated in the synthesized complementary strand; 3' TTTTT single-stranded linker to array surface; dsDNA, one strand shown
Whole data set: some 68,000 sequences, median “fluorescence intensity (a.u.)” near 9,100, cut for the highest 2% near 16,000. The entries come from a sample that favours the highest values as a whole.

Past entries and their recorded results:
RESIDUE_SEQUENCE: TTTTTTTTCTTTCTGTTCTGTTTCTGTTGAGAAACAAAGACGGAGTCACCTAGTGCAG
binding signal: 8450 fluorescence intensity (a.u.)

RESIDUE_SEQUENCE: TCCATCATCGTCGTCTCTGTGTGTGTCTGTGTGTGTGTGTCGGAGTCACCTAGTGCAG
binding signal: 17900 fluorescence intensity (a.u.)

RESIDUE_SEQUENCE: TTGTGTAGGTTTTGTTTCTTTCTTCTTTTTTCGAAAAGAGCGGAGTCACCTAGTGCAG
binding signal: 8940 fluorescence intensity (a.u.)

RESIDUE_SEQUENCE: CGACGGGCGGGTGTGGGGATTCGCGGCCTTGAGGGTTCGTCGGAGTCACCTAGTGCAG
binding signal: 9660 fluorescence intensity (a.u.)

RESIDUE_SEQUENCE: AGGCCTCCACGGCTCCACCTCCTTCCGCTTTCGCCTATCCCGGAGTCACCTAGTGCAG
binding signal: 10000 fluorescence intensity (a.u.)

Note down binding signal recorded for CTGTTGGTCAATCGCCGAACTTACCGCCGCGCCGGCCATGCGGAGTCACCTAGTGCAG
9410 fluorescence intensity (a.u.)

Specify reported binding signal for the sequence shown: TACCTCTCTTCTCTTCTCCAATCTCTATCTATGTCTTCTTCGGAGTCACCTAGTGCAG
8640 fluorescence intensity (a.u.)

Retrieve binding signal measured for TCTCTCTGGGAGGTCTCGCGGAAGGTGGTGGGGTTGGGCCCGGAGTCACCTAGTGCAG and print it.
11500 fluorescence intensity (a.u.)

Let me know recorded binding signal for CATACTGTTCCACTCGCCCTCGTTTTCTCCGCCACCGAGCCGGAGTCACCTAGTGCAG , thanks.
8450 fluorescence intensity (a.u.)

Give recorded binding signal. CCGCTGTCGTCGTCTCGTCTCTGTGTGTGTGTCTCCATCACGGAGTCACCTAGTGCAG
8280 fluorescence intensity (a.u.)

Return binding signal for the following sequence: TATATTGTCTGTTTTCTCTTGAATCTTTCCTATCCAGTAGCGGAGTCACCTAGTGCAG
8490 fluorescence intensity (a.u.)

Entry CGGGCGGGGCGGGGCGGGTTCGCTCGTCGGATGTGTGGATCGGAGTCACCTAGTGCAG needs its binding signal filled in; supply it.
23900 fluorescence intensity (a.u.)

* * *

Each entry below lists one item and its recorded binding signal value.
Target: OsWRKY34 (Oryza sativa, UniProt Q0JBA9 1-250)
Test: protein-binding microarray (RPBM); PBS, 2% BSA, 51.3 ng/ul salmon testes DNA, 50 uM zinc acetate, 200 nM TF, 25 C, 1 h; high values mean tight binding
Settings: protein: recombinant; tags: N-terminal polyhistidine and DsRed monomer fusion (pET32a); label: CyDye5-dUTP incorporated in the synthesized complementary strand; 3' TTTTT single-stranded linker to array surface; dsDNA, one strand shown
In all, about 68,000 sequences were measured (“fluorescence intensity (a.u.)”: median about 9,100, highest 2% from about 16,000 on). This excerpt belongs to a sample that is enriched for the highest values.

# annotated cases, reported binding signal shown
RESIDUE_SEQUENCE: AACCTTTCTATAGATTTTTTTTTTTTACAAAAACACATCACGGAGTCACCTAGTGCAG
binding signal: 11700 fluorescence intensity (a.u.)
//
RESIDUE_SEQUENCE: GAGGTGGGTGTGGAACTGTGGATGCGGGTCGGGGAGATCGCGGAGTCACCTAGTGCAG
binding signal: 16900 fluorescence intensity (a.u.)
//
RESIDUE_SEQUENCE: TGCATTGACCAGGTCAACGGGAGAGGGAGGGGCAAAATCGCGGAGTCACCTAGTGCAG
binding signal: 19600 fluorescence intensity (a.u.)
//
RESIDUE_SEQUENCE: AAACGCTGTGGTGGGTGGTGGTGCGGATGGGGAGGTGTGGCGGAGTCACCTAGTGCAG
binding signal: 14100 fluorescence intensity (a.u.)
//
RESIDUE_SEQUENCE: TCGGCGGCGAGGTGGTGGCGGTGGCGGTGGTGGGAGTAGTCGGAGTCACCTAGTGCAG
binding signal: 15200 fluorescence intensity (a.u.)
//
RESIDUE_SEQUENCE: GGTTATGGTTCAATTCTAATGTTCCTTTGGTGTCACATTTCGGAGTCACCTAGTGCAG
binding signal: 8200 fluorescence intensity (a.u.)
//
RESIDUE_SEQUENCE: GGGAGATTTGTTGCAACGGAGGGCATTGAGTGGTGGGGACCGGAGTCACCTAGTGCAG
binding signal: 8570 fluorescence intensity (a.u.)
//
RESIDUE_SEQUENCE: TGTCAGGTCAAATCGGGGAGGCGGGGTGCGTACCAACGGTCGGAGTCACCTAGTGCAG
binding signal: 11900 fluorescence intensity (a.u.)

Now turn to the next sequence.
State its binding signal: GCTGTGGCGGAGGTGGGGAGGTGGAGGTGGAGGGGAGATGCGGAGTCACCTAGTGCAG
24600 fluorescence intensity (a.u.)

* * *

Molecular target: OsWRKY34 (Oryza sativa, UniProt Q0JBA9 1-250)
Assay: protein-binding microarray (RPBM); PBS, 2% BSA, 51.3 ng/ul salmon testes DNA, 50 uM zinc acetate, 200 nM TF, 25 C, 1 h; high values mean tight binding
Details: protein: recombinant; tags: N-terminal polyhistidine and DsRed monomer fusion (pET32a); label: CyDye5-dUTP incorporated in the synthesized complementary strand; 3' TTTTT single-stranded linker to array surface; dsDNA, one strand shown
Over roughly 68,000 sequences, “fluorescence intensity (a.u.)” has its median near 9,100; the highest 2% begin near 16,000. The sample as a whole holds a higher share of the highest values than the screen did.
Entries and their binding signal values follow.

RESIDUE_SEQUENCE: ACTCCCTCCATTTTTTTAATTGACGACGCCATTGACTTTTCGGAGTCACCTAGTGCAG
binding signal: 9350 fluorescence intensity (a.u.)

Read the entry ATGATGCCGTTGACTTTTTGAACAACGTTTGACTATTCGTCGGAGTCACCTAGTGCAG and write its reported binding signal.
32600 fluorescence intensity (a.u.)

Please give the documented binding signal of TGGATGGTACTCCCTCCTCTAAATGTTTGACGCCGTTGACCGGAGTCACCTAGTGCAG
14400 fluorescence intensity (a.u.)

Dear colleague, please send me the reported binding signal for CCCTTGACAGCACAGAGGCAACAGCAAAACACACTCTCATCGGAGTCACCTAGTGCAG when you can.
8580 fluorescence intensity (a.u.)

Determine its reported binding signal: TTGGGAGGGATGGGGCGGTGGTTAGGGGATGAGCGGAGGACGGAGTCACCTAGTGCAG
13200 fluorescence intensity (a.u.)

Give the measured binding signal for TTCTTGGTTTTGAGTTCTCTTCTCGGTTTTCTCTTTAGCGCGGAGTCACCTAGTGCAG
9000 fluorescence intensity (a.u.)

Supply measured binding signal of TATTTGACGTCGTTGACTTTTTAAAACATGTTTGACCATTCGGAGTCACCTAGTGCAG in your reply.
30200 fluorescence intensity (a.u.)

Write down binding signal measured for item GTCATTTATTTTTACCAACGTTTGACTATTCGTCTTATTTCGGAGTCACCTAGTGCAG
9430 fluorescence intensity (a.u.)

Report measured binding signal; entry is TTGACACCATTGACTTTTTTAAACATGTTTGACCGTTCGTCGGAGTCACCTAGTGCAG
15100 fluorescence intensity (a.u.)

* * *

Target: OsWRKY34 (Oryza sativa, UniProt Q0JBA9 1-250)
Experiment: protein-binding microarray (RPBM); PBS, 2% BSA, 51.3 ng/ul salmon testes DNA, 50 uM zinc acetate, 200 nM TF, 25 C, 1 h; high values mean tight binding
Settings: protein: recombinant; tags: N-terminal polyhistidine and DsRed monomer fusion (pET32a); label: CyDye5-dUTP incorporated in the synthesized complementary strand; 3' TTTTT single-stranded linker to array surface; dsDNA, one strand shown
Whole data set: some 68,000 sequences, median “fluorescence intensity (a.u.)” near 9,100, cut for the highest 2% near 16,000. What follows is part of a selection rich in the highest values, with near analogues and random picks from the rest.
MEASURED_PROPERTY: binding signal

These solved cases illustrate the format of a correct answer.
RESIDUE_SEQUENCE: GGAGGGGCGGGGTGGCGCGGCGAGGCCGGCGACAAGGCCGCGGAGTCACCTAGTGCAG
MEASURED_PROPERTY: binding signal
RESULT: 9130 fluorescence intensity (a.u.)
//
RESIDUE_SEQUENCE: GGTTCGTTCGTTCCTCCCGCGGCGACGGGGTGGGGCACACCGGAGTCACCTAGTGCAG
MEASURED_PROPERTY: binding signal
RESULT: 8930 fluorescence intensity (a.u.)

Using the record for CCCGGCCGCTCTCTCCGGGTGGGGTGGTGGGTGGCAAGGGCGGAGTCACCTAGTGCAG , state its measured binding signal.
21100 fluorescence intensity (a.u.)

Specify measured binding signal for CCGGTCCTTCACCCACTTCAGCTTCACGTTCACCAGCGTCCGGAGTCACCTAGTGCAG .
10200 fluorescence intensity (a.u.)

Please give the documented binding signal of TGTGTTGCTCTCTCTTCACTTGGTTGGCGGCGGCGCTGCGCGGAGTCACCTAGTGCAG
8060 fluorescence intensity (a.u.)

For the sequence AATTCCGGTGGTTCACCGCCGGTGAGGGTTGGAGGAGGGGCGGAGTCACCTAGTGCAG , give its reported binding signal.
8160 fluorescence intensity (a.u.)

Tell us which binding signal value is on record for AGGCGGCGGGGTGGCGGTGGTGGTGGTGGTGGTGGTGATGCGGAGTCACCTAGTGCAG
19000 fluorescence intensity (a.u.)

Given the sequence CGGTAGGGCGAGCACGGGTGGGGTTGGTGGTGATTTTTTTCGGAGTCACCTAGTGCAG , write its reported binding signal.
20800 fluorescence intensity (a.u.)

Provide binding signal value for the following sequence: CACAGATCATTACACACTGTTTGAGCATCTCTCTATTCCTCGGAGTCACCTAGTGCAG
8320 fluorescence intensity (a.u.)
